Test system: UACC-257 melanoma
Test: NCI tumour cell line growth inhibition, 48 h
*1 amine or outer side, *2 acyl side, *3 side chain or, on linkers, in order; H or OH if unused. Where a SMILES comes first, the peptide text is derived from it. Bridges are numbered along the chain shown (N, C = ends). [ ]: non-standard residue; d: D form. The star is where a group is joined. ξ: configuration not given here. γ4hArg(2R,3R-(OH)2) = N=C(N)NCCC[C@H](N[*:1])[C@@H](O)[C@@H](O)C(=O)[*:2]; Gln(3S,4R-Me2) = C[C@H]([C@H](N)C(=O)O)[C@@H](C)C(N)=O; X43 = CC(C)C[C@H](C)[C@@H](O)[C@@H](C)C(=O)*; X44 = COC(c1ccc(O)cc1)C(N[*:1])C(=O)[*:2]; NMeQ = CN[C@@H](CCC(N)=O)C(=O)O; Thr(3ξ) = CC(O)[C@H](N)C(=O)O; NMeA = CN[C@@H](C)C(=O)O
measure: TGI

Exercise: Please look up its TGI: CSC1=C(N)C(=O)c2[nH]cc(CO)c2C1=N
Solution: 0.267 µM

Exercise: Find the recorded TGI belonging to O=C(c1ccc(Cl)cc1Cl)C1[C@H]2C(=O)N(c3ccc(Cc4ccc(N5C(=O)[C@@H]6ON(c7ccccc7)C(C(=O)c7ccc(Cl)cc7Cl)[C@@H]6C5=O)cc4)cc3)C(=O)[C@H]2ON1c1ccccc1 (stereo not given in full) and report it.
Solution: > 50 µM

Exercise: Give its TGI value. Item: OCC(O)C(O)C(O)C(O)c1nc2ccc(Cl)cc2[nH]1 (stereo not given)
Solution: > 100 µM

Exercise: Which TGI reading was recorded for the compound C=CCN=C(N/N=C/c1ccc([N+](=O)[O-])o1)NS(=O)(=O)c1cc(C(=O)Nc2ccc(Cl)cc2)c(Cl)cc1SC ?
Solution: > 59.9 µM

Exercise: I am curious: what TGI value has been reported for CO/N=C1\CC(NC(=O)CNC(=O)OC(C)(C)C)c2ccsc21 (stereo not given) ?
Solution: > 100 µM

Exercise: Quick one: TGI for CC1(C)C2CCC13C(=O)C1OC3(C2)C2C(=O)c3ccccc3C(=O)C12 (stereo not given) ?
Solution: > 100 µM

Exercise: GET /values?readout=TGI&item= COc1cc(OC)c(C/C=C/c2ccccc2)cc1O
Solution: 55.6 µM

Exercise: Query (compound): Cc1ccc2c(c1)-c1c3c(nn1-c1ccccc1)-c1ccccc1SC3O2 (stereo not given) ; field requested: TGI
Solution: > 100 µM

Exercise: Give the measured TGI of O=c1cnn(C2OC(CO)C(O)C2O)c(=S)[nH]1 (stereo not given) .
Solution: > 100 µM

Exercise: I would be grateful if you could share the reported TGI for COC(C(=O)NN)c1ccccc1 (stereo not given) .
Solution: > 100 µM

Exercise: Recorded TGI for COC(c1ccc(O)cc1)C1NC(=O)[C@H](CCC(N)=O)N(C)C(=O)[C@H](CC(C)C)NC(=O)[C@@H](CCCN=C(N)N)NC(=O)[C@H](C(C)O)NC(=O)[C@@H](NC(=O)[C@@H](NC(=O)[C@H](O)[C@H](O)[C@H](CCCN=C(N)N)NC(=O)[C@H](C)NC(=O)[C@H](C)[C@H](O)[C@@H](C)CC(C)C)[C@@H](C)[C@@H](C)C(N)=O)[C@@H](C)OC(=O)[C@H](C)N(C)C1=O (stereo partly drawn) (X43-A[γ4hArg(2R,3R-(OH)2)][Gln(3S,4R-Me2)]T[Thr(3ξ)][dR]L[NMeQ][X44][NMeA]; ester 4-C) , please?
Solution: 0.308 µM

Exercise: Would you kindly share the measured TGI for CCOC(=O)c1nc2ccc(C(F)(F)F)cc2nc1Oc1cc(OC)c(OC)c(OC)c1 ?
Solution: > 100 µM

Exercise: Quick check: TGI of NC(=O)N/N=C1/CCC(O)CC1CC(=O)O (stereo not given) ?
Solution: > 100 µM

Exercise: Request the reported TGI associated with CC(NC(=O)C(NC(=O)CNC(=O)OC(C)(C)C)C(C)C)C(=O)Oc1c(Cl)c(Cl)c(Cl)c(Cl)c1Cl (stereo not given)
Solution: 44.7 µM

Exercise: Given the compound CCCCCCCC/C=C\CCCCCCC/C=C1\C[C@](/C=C/C(=O)OC)(CO)OC1=O , what is its reported TGI?
Solution: 26.6 µM
